The origin of these recorded values is the kinase profiling compilation of Christmann-Franck et al. (2016).

- Target: EPHB3 (human) (UniProt P54753)
- Sequence (P54753 whole entry, looked up): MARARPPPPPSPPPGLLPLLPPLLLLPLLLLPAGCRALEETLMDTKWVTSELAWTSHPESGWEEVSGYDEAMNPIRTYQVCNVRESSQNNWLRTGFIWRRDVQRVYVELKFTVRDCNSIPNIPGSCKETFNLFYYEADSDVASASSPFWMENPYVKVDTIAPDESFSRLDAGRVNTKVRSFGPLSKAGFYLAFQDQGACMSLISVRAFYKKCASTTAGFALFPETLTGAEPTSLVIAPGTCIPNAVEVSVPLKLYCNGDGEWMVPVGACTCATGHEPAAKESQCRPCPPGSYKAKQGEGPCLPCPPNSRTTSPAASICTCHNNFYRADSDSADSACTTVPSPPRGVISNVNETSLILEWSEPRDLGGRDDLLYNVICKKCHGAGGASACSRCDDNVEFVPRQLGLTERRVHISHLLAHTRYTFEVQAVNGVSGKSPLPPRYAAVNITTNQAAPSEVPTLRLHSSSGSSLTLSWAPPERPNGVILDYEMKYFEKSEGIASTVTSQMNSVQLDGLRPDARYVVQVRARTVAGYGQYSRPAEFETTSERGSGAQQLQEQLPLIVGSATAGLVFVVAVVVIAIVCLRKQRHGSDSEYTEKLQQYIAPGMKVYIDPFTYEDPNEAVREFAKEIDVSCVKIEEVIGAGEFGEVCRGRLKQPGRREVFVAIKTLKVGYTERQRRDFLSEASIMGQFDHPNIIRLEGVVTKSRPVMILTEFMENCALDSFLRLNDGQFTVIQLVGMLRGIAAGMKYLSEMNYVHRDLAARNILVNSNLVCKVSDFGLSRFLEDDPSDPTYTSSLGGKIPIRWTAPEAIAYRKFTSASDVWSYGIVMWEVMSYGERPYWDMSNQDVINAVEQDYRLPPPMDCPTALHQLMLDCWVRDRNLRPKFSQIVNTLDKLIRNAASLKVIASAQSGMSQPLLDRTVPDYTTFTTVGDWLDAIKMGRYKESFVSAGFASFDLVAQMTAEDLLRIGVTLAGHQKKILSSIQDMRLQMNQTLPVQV
- Assay Details: radiometric filter-binding kinase assay, Kinase HotSpot
- Condition Parameters: compound 0.5 µM; ATP 10 µM
Measure Name: residual activity (%)
Kindly answer with a numeric value in %, unit omitted.

Item CCN(CC)C(=O)c1ccc(Nc2nc(OCC3CCCCC3)c3nc[nH]c3n2)cc1 with EPHB3 (human) (UniProt P54753) - residual activity? 99.5

Give EPHB3 (human) (UniProt P54753) residual activity for CCOC(=O)c1c(C)[nH]c(/C=C2\C(=O)Nc3ccccc32)c1C 94.4

Form entry - test system: EPHB3 (human) (UniProt P54753); read-out: residual activity; molecule: CC#CC(=O)Nc1cc2c(Nc3ccc(F)c(Cl)c3)ncnc2cn1 85.4

Query residual activity on EPHB3 (human) (UniProt P54753) for O=C(Nc1cccc(Nc2nccc(Nc3cccc(C(F)(F)F)c3)n2)c1)C1CC1 100

# get_value(readout= residual activity, system= EPHB3 (human) (UniProt P54753)) for Nc1cccc(-c2cc3c(Oc4cccc(O)c4)ncnc3[nH]2)c1 78.8

What is its residual activity for EPHB3 (human) (UniProt P54753)? Entry: Cc1ccc(NC2=CC(=O)c3sc(C)nc3C2=O)cc1 89.2
